# Test system: AB-3167, clinical isolate of Acinetobacter baumannii
# Format: cell-based
# test context: AB-3167, clinical isolate of
Bridge positions count the residues as written; N and C are the ends. Square brackets hold non-standard residues; d marks the D form. Peptide text beside a SMILES is read from it. * marks the point of attachment. Isonicotinoyl(2-Ph) = O=C(c1ccnc(-c2ccccc2)c1)*; Benzoyl(4-Ph) = O=C(c1ccc(-c2ccccc2)cc1)*; X18 = N#Cc1ccc(-c2cc(C(=O)*)ccc2C#N)cc1; X17 = N#Cc1ccc(-c2cccc(C(=O)*)c2)cc1; X9 = N#Cc1ccc(-c2cc(C(=O)*)ccc2F)nc1; X34 = COc1ccc(-c2cc(C(=O)*)ccn2)cc1; X3 = O=C(c1ccnc(-c2cccc(Cl)c2)c1)*; X14 = CC(C)c1cccc(C(=O)*)c1; Dab = NCC[C@H](N)C(=O)O; Dap = NC[C@H](N)C(=O)O
Reported AB-3167 MIC values are given for each entry in this list.
Give your result in µg/mL as a bare value.

Known results for compounds:
INSERT INTO assay_data (compound, experimental_readout, number) VALUES
  ('CC(C)C[C@@H]1NC(=O)[C@@H](Cc2ccccc2)NC(=O)[C@H](CCN)NC(=O)[C@@H](NC(=O)[C@H](CN)NC(=O)[C@@H](NC(=O)[C@H](CCN)NC(=O)c2ccc(-c3ccccc3)cc2)[C@@H](C)O)CCNC(=O)[C@H]([C@@H](C)O)NC(=O)[C@H](CCN)NC(=O)[C@H](CCN)NC1=O [Example 45] ({Benzoyl(4-Ph)}-[Dab]T[Dap][Dab][Dab][dF]L[Dab][Dab]T; lactam 4-C)', 'AB-3167 MIC', 0.25),
  ('CC(C)C[C@@H]1NC(=O)[C@@H](Cc2ccccc2)NC(=O)[C@H](CCN)NC(=O)[C@@H](NC(=O)[C@H](CN)NC(=O)[C@@H](NC(=O)[C@H](CCN)NC(=O)c2cccc(C(C)C)c2)[C@@H](C)O)CCNC(=O)[C@H]([C@@H](C)O)NC(=O)[C@H](CCN)NC(=O)[C@H](CCN)NC1=O [Example 25] (X14-[Dab]T[Dap][Dab][Dab][dF]L[Dab][Dab]T; lactam 4-C)', 'AB-3167 MIC', 0.25),
  ('CC(C)C[C@@H]1NC(=O)[C@@H](Cc2ccccc2)NC(=O)[C@H](CCN)NC(=O)[C@@H](NC(=O)[C@H](CN)NC(=O)[C@@H](NC(=O)[C@H](CCN)NC(=O)c2ccc(F)c(-c3ccc(C#N)cn3)c2)[C@@H](C)O)CCNC(=O)[C@H]([C@@H](C)O)NC(=O)[C@H](CCN)NC(=O)[C@H](CCN)NC1=O [Example 24] (X9-[Dab]T[Dap][Dab][Dab][dF]L[Dab][Dab]T; lactam 4-C)', 'AB-3167 MIC', 0.5);

# input Which AB-3167 MIC reading was recorded for the compound CC(C)C[C@@H]1NC(=O)[C@@H](Cc2ccccc2)NC(=O)[C@H](CCN)NC(=O)[C@@H](NC(=O)[C@H](CN)NC(=O)[C@@H](NC(=O)[C@H](CCN)NC(=O)c2cccc(-c3ccc(C#N)cc3)c2)[C@@H](C)O)CCNC(=O)[C@H]([C@@H](C)O)NC(=O)[C@H](CCN)NC(=O)[C@H](CCN)NC1=O [Example 32] (X17-[Dab]T[Dap][Dab][Dab][dF]L[Dab][Dab]T; lactam 4-C) ?
# output 0.5

# input Which AB-3167 MIC reading was recorded for the compound COc1ccc(-c2cc(C(=O)N[C@@H](CCN)C(=O)N[C@H](C(=O)N[C@@H](CN)C(=O)N[C@H]3CCNC(=O)[C@H]([C@@H](C)O)NC(=O)[C@H](CCN)NC(=O)[C@H](CCN)NC(=O)[C@H](CC(C)C)NC(=O)[C@@H](Cc4ccccc4)NC(=O)[C@H](CCN)NC3=O)[C@@H](C)O)ccn2)cc1 [Example 22] (X34-[Dab]T[Dap][Dab][Dab][dF]L[Dab][Dab]T; lactam 4-C) ?
# output 0.25

# input Which AB-3167 MIC reading was recorded for the compound CC[C@H](C)[C@@H]1NC(=O)[C@@H](Cc2ccccc2)NC(=O)[C@H](CCN)NC(=O)[C@@H](NC(=O)[C@H](CN)NC(=O)[C@@H](NC(=O)[C@H](CCN)NC(=O)c2ccnc(-c3cccc(Cl)c3)c2)[C@@H](C)O)CCNC(=O)[C@H]([C@@H](C)O)NC(=O)[C@H](CCN)NC(=O)[C@H](CCN)NC1=O [Example 48] (X3-[Dab]T[Dap][Dab][Dab][dF]I[Dab][Dab]T; lactam 4-C) ?
# output 0.25

# input Which AB-3167 MIC reading was recorded for the compound CC(C)C[C@@H]1NC(=O)[C@@H](Cc2ccccc2)NC(=O)[C@H](CCN)NC(=O)[C@@H](NC(=O)[C@H](CN)NC(=O)[C@@H](NC(=O)[C@H](CCN)NC(=O)c2ccc(C#N)c(-c3ccc(C#N)cc3)c2)[C@@H](C)O)CCNC(=O)[C@H]([C@@H](C)O)NC(=O)[C@H](CCN)NC(=O)[C@H](CCN)NC1=O [Example 13] (X18-[Dab]T[Dap][Dab][Dab][dF]L[Dab][Dab]T; lactam 4-C) ?
# output 0.25

# input Which AB-3167 MIC reading was recorded for the compound CC(C)C[C@@H]1NC(=O)[C@@H](Cc2ccccc2)NC(=O)[C@H](CCN)NC(=O)[C@@H](NC(=O)[C@H](CN)NC(=O)[C@H](CO)NC(=O)[C@H](CCN)NC(=O)c2ccnc(-c3ccccc3)c2)CCNC(=O)[C@H]([C@@H](C)O)NC(=O)[C@H](CCN)NC(=O)[C@H](CCN)NC1=O [Example 46] ({Isonicotinoyl(2-Ph)}-[Dab]S[Dap][Dab][Dab][dF]L[Dab][Dab]T; lactam 4-C) ?
# output 1

# input Which AB-3167 MIC reading was recorded for the compound CC(C)C[C@@H]1NC(=O)[C@@H](Cc2ccccc2)NC(=O)[C@H](CCN)NC(=O)[C@@H](NC(=O)[C@H](CN)NC(=O)[C@@H](NC(=O)[C@H](CCN)NC(=O)c2ccnc(-c3ccccc3)c2)[C@@H](C)O)CCNC(=O)[C@H]([C@@H](C)O)NC(=O)[C@H](CCN)NC(=O)[C@H](CCN)NC1=O [Example 1] ({Isonicotinoyl(2-Ph)}-[Dab]T[Dap][Dab][Dab][dF]L[Dab][Dab]T; lactam 4-C) ?
# output 0.25

src = patent US20120316105A1
